# assayTarget: human LPAR1 (Homo sapiens)
# Sequence (Q92633 whole entry): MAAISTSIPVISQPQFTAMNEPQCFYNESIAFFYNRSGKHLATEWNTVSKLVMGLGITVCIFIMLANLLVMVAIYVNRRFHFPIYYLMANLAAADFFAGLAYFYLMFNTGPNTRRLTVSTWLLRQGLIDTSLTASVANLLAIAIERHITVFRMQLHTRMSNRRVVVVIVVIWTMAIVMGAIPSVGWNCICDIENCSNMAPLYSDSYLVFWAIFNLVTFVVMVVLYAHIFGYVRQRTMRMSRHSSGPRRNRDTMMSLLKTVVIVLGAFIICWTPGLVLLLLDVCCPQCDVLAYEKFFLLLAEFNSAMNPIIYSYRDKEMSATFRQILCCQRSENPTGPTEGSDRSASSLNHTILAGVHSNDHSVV
# testDescription: In vitro functional assay of lysophosphatidic acid receptor 1 activity (calcium flux)
# Type: cell-based
# measurementParameters: LPAR1 IC50
reportedMetric: IC50

> print(dat)
                                   compound  reportedmetric    testresult
1  CC(=O)N1CCC(N(C(=O)Nc2ccc(C)nc2OC(F)F)c2ccccc2C(C)C)CC1 [Example 66]            IC50       < 10 nM
2  COc1nc(OC(F)F)c(NC(=O)N(c2ccccc2C(C)C)C2CCN(C(C)=O)CC2)cc1F [Example 225]            IC50  10 to 100 nM

Read the next record carefully.
Quick one: IC50 for COc1ccc(NC(=O)N(c2ccccc2C(C)C)C2CC3CC2CN3C(C)=O)c(OC(F)F)n1 (stereo not drawn) [Example 57] ?
100 to 1000 nM

Hey, just so you know, these numbers are from patent US20250034110A1.
